For each entry below, report its Ki value.
Numeric answer only, unit nM assumed.

Q: Give Ki for this entry on alpha2B-adrenoceptor (Homo sapiens, UniProt P18089): CCC1(O)CCCN2CCc3c([nH]c4ccccc34)C21 (stereo not shown) [Compound K]
Sequence (P18089 whole entry): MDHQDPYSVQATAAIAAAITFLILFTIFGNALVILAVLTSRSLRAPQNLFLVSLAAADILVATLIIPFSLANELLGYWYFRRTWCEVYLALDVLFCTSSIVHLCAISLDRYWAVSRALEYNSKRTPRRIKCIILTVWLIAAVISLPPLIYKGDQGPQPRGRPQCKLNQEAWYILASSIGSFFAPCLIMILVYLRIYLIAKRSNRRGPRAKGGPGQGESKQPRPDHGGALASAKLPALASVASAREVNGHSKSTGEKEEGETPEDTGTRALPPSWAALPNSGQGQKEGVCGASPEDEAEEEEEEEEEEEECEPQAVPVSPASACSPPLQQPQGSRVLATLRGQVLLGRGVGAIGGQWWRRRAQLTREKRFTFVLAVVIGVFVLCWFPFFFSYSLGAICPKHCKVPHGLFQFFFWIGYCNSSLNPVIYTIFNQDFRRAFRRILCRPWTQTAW
Ans: 245

Q: Tell me its Ki on alpha2B-adrenoceptor (Homo sapiens, UniProt P18089): CC[C@]1(CO)CCCN2CCc3c([nH]c4ccccc34)[C@@H]21 (relative stereo) [Compound L]
Ans: 20

Q: GET Ki where system = alpha2B-adrenoceptor (Homo sapiens, UniProt P18089) and item = CC[C@@H]1CCCN2CCc3c([nH]c4ccccc34)[C@@H]12 (relative stereo) [Compound J]
Ans: 520

Q: Report Ki from alpha2B-adrenoceptor (Homo sapiens, UniProt P18089) testing of c1ccc2c3c([nH]c2c1)C1CCCCCN1CC3 (stereo not shown) [Compound E]
Ans: 110

Q: Write Ki of CC[C@]1(CO)CCCN2CCc3c([nH]c4ccccc34)[C@H]21 (relative stereo) [Compound M] ; system used: alpha2B-adrenoceptor (Homo sapiens, UniProt P18089)
Ans: 470

Q: Look up and report measured Ki (alpha2B-adrenoceptor (Homo sapiens, UniProt P18089)) for the following compound: C1=CCN2CCc3c([nH]c4ccccc34)C2C1 (stereo not shown) [Compound I]
Ans: 460

Q: // fetch Ki; item: CC(C)C1(O)CCCN2CCc3c([nH]c4ccccc34)C21 (stereo not shown) [Compound A] ; system: alpha2B-adrenoceptor (Homo sapiens, UniProt P18089)
Ans: 330

---

The following are reported pKi results, target or system alpha2A-adrenoceptor (Homo sapiens, UniProt P08913).
Just the number, please; pKi means minus log10 of the concentration in mol/L.

Q: Provide measured pKi value, entry: CC[C@]1(CO)CCCN2CCc3c([nH]c4ccccc34)[C@H]21 (relative stereo)
Ans: 6.36

Q: Report pKi, nothing else, for this compound: C[C@@]1(O)CCCN2CCc3c([nH]c4ccccc34)[C@H]21 (relative stereo)
Ans: 6.55

Q: Report pKi, nothing else, for this compound: CC[C@]1(CO)CCCN2CCc3c([nH]c4ccccc34)[C@@H]21 (relative stereo)
Ans: 7.07

Q: Kindly indicate its recorded pKi. Item: OC[C@H]1CCCN2CCc3c([nH]c4ccccc34)[C@H]12 (relative stereo)
Ans: 6.42

Q: Give pKi for the following compound: CC(C)C1(O)CCCN2CCc3c([nH]c4ccccc34)C21 (centres unmarked)
Ans: 6.32

Q: Identify measured pKi associated with CC[C@@H]1CCCN2CCc3c([nH]c4ccccc34)[C@@H]12 (relative stereo)
Ans: 6.68

Q: Report pKi for c1ccc2c3c([nH]c2c1)C1CCCCCN1CC3 (centres unmarked)
Ans: 7.52

Q: For the compound CCC1(O)CCCN2CCc3c([nH]c4ccccc34)C21 (centres unmarked) , report pKi.
Ans: 6.44

---

Tested target: alpha2C-adrenoceptor (Homo sapiens, UniProt P18825)
Sequence (P18825 whole entry, species assumed): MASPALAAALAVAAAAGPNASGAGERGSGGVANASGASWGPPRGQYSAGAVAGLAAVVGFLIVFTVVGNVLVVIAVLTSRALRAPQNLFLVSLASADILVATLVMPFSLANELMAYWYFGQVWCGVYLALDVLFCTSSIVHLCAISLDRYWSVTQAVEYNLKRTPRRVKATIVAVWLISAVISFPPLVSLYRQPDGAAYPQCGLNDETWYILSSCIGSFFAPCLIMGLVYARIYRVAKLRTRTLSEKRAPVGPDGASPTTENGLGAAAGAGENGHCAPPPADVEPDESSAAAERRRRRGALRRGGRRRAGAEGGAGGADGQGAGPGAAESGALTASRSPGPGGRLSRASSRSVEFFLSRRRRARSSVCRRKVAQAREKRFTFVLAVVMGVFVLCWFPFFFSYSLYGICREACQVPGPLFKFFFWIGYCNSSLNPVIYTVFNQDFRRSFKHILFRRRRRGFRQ
Test method notes: Radioligand binding to alpha2-adrenoceptors (alpha2C)
Run conditions: calculated Ki from radioligand binding assays; read-out: Binding affinity (Ki) alpha2C
Measured attribute: pKi
# pKi is unitless: minus log10 of the molar concentration; print number only

Q: Quote pKi reported for CCC1(O)CCCN2CCc3c([nH]c4ccccc34)C21 (stereo not drawn) please.
Ans: 7.51

Q: Quickly give me recorded pKi for CCC1(O)C(C)CCN2CCc3c([nH]c4ccccc34)C21 (stereo not drawn)
Ans: 7.60

Q: Quick one: give measured pKi for CC(C)(C)[C@@H]1CCN2CCc3c([nH]c4ccccc34)[C@@H]2C1 (relative stereo)
Ans: 8.19

Q: In one line, give reported pKi of the entry CCC(C)C1(O)CCCN2CCc3c([nH]c4ccccc34)C21 (stereo not drawn) .
Ans: 7.06

Q: Supply recorded pKi for C[C@@H]1CCCN2CCc3c(oc4ccccc34)[C@@H]12 (relative stereo) here.
Ans: 7.66

Q: Supply reported pKi belonging to this molecule: C[C@@]1(O)CCCN2CCc3c([nH]c4ccccc34)[C@H]21 (relative stereo)
Ans: 7.64

Q: Indicate the recorded pKi value for this molecule: CC[C@]1(CO)CCCN2CCc3c([nH]c4ccccc34)[C@@H]21 (relative stereo)
Ans: 7.74

Q: For the molecule OC[C@H]1CCCN2CCc3c([nH]c4ccccc34)[C@H]12 (relative stereo) , report pKi.
Ans: 6.96

Q: Annotate the molecule COC1CCN2CCc3c([nH]c4ccccc34)C2C1 (stereo not drawn) with its measured pKi.
Ans: 7.77

---

Tested target: UniProt:P18825
Test method notes: Radioligand binding to alpha2-adrenoceptors (alpha2C)
Measured attribute: pKi
Bear in mind: pKi is minus log10 of a mol/L concentration; give just that figure.

Q: Specify pKi for C1=CCN2CCc3c([nH]c4ccccc34)C2C1 (stereo not shown) and stop.
Ans: 7.07
